Each recorded value in this set is attributed to ChEMBL document CHEMBL2346536.

- Test system: Staphylococcus aureus
- PROTOCOL TEXT: Antibacterial activity against Staphylococcus aureus SG 511 after 18 hrs by broth microdilution method
- Assay type: functional
- STATED CONDITIONS: SG 511, 18 h
What MIC was measured for each of the following?
Give bare numbers, in µM.

molecule=O=C(O)c1cn(C2CC2)c2cc(N3CCNCC3)c(F)cc2c1=O recorded_measurement=0.5

Please look at the items below and tell me MIC for each one, in order.
1. O=C(CCC(=O)N(CCCCNC(=O)c1cccc(O)c1O)CCCNC(=O)c1cccc(O)c1O)NCCCCCN(O)C(=O)CCC(=O)N[C@H](C(=O)N[C@@H]1C(=O)N2C(C(=O)O)=C(Cl)CC[C@H]12)c1ccccc1
2. N[C@@H](C(=O)N[C@@H]1C(=O)N2C(C(=O)O)=C(Cl)CC[C@H]12)c1ccccc1 [LORACARBEF ANHYDROUS]

[32, 1]
